# target-or-system: T1, ADAAD R595H (Bos taurus (bovine), UniProt Q9TTA5 221-940, R815H)
# T1 sequence: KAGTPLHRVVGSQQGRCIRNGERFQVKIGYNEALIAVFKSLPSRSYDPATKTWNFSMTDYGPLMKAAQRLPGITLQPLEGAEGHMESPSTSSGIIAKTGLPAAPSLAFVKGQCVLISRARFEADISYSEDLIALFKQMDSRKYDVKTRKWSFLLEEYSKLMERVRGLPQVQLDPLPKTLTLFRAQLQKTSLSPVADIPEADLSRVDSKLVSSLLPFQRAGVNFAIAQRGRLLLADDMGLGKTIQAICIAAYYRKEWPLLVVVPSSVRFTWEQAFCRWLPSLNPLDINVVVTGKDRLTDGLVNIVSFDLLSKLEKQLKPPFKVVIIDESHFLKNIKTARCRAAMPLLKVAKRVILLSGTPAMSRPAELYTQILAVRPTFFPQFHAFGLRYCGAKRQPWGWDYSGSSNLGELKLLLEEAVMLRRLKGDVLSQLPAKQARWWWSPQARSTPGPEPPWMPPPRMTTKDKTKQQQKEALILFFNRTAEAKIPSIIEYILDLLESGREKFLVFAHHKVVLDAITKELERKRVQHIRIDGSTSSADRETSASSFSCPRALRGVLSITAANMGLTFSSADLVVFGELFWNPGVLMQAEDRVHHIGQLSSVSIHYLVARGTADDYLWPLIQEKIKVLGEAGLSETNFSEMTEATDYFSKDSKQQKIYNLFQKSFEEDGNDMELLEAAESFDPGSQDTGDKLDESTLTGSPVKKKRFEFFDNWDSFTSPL
# protocol-summary: intrinsic tryptophan fluorescence titration; no ATP; Fluorescence titration (ex 295 nm, em 340 nm), one-site saturation fit; buffer, salt, pH and temperature not given in the material. Wild-type ADAAD Kd values are cited from ref 24 and not listed
# condition-label: protein: recombinant; tags: His (Ni-NTA, pET-14b); hairpin
property-measured: pKd
Scale for pKd: -log10 of concentration given in mol/L; no unit attached.

Exercise: Return pKd for the following binder: GCGCAATTGCGCTCGACGATTTTTTAGCGCAATTGCGC (structured_DNA) [slDNA (stem-loop DNA)]
Key: 7.61
